Molecular target: Large T antigen (Simian virus 40) (UniProt P03070)
Sequence (P03070 whole entry, looked up): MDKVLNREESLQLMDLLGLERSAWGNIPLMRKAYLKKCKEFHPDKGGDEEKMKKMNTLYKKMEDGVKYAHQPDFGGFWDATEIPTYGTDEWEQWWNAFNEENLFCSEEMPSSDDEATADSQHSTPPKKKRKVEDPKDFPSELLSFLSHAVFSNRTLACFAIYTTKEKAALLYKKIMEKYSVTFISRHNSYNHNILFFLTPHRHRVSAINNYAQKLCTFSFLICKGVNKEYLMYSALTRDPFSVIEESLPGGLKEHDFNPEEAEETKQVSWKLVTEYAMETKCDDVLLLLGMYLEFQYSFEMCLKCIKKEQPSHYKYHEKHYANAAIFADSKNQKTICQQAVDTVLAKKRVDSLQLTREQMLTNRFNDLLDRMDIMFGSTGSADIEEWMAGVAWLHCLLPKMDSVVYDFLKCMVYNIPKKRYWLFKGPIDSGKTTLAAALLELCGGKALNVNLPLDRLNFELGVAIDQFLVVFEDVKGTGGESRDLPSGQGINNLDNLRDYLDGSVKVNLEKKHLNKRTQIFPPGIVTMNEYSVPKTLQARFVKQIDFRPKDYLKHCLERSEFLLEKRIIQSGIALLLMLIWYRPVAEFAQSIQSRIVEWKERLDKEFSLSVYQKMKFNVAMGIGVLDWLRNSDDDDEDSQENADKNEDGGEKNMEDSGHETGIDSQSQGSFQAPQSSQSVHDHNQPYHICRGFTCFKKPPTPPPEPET
Assay: SV40 large T antigen inhibitors, biochemical (AID 1903)
Settings: SV40 large T antigen ATPase/helicase inhibition assay; at 20 µM; stronger effect = higher value
The campaign covered roughly 310,000 compounds. About 1,200 (0.39%) were called active. A selection follows. Results with a measured potency or affinity are listed apart.
Is inhibition at least 20%? Then label 1. If not, label 0.

{"molecule": "O=C(CC1C(=O)NCCN1CC(c1ccccc1)c1ccccc1)NC1CC1 (configuration not stated)", "tested_system": "Large T antigen (Simian virus 40) (UniProt P03070)", "qualitative_label": "label 0"}

INPUT: Is inhibition for Cc1ccc(/C=C2/C(=N)N3N=C(CC(=O)N4CCCC4)SC3=NC2=O)cc1 at or above 20%?
OUTPUT: label 1

INPUT: Does CCc1cccc(N(C(=O)c2csnn2)C(C(=O)NC(C)(C)C)c2ccncc2)c1 (configuration not stated) have a reported inhibition of at least 20%?
OUTPUT: label 0

INPUT: # bool: inhibition of COc1ccc(N=c2sc3ccccc3n2C)cc1 >= 20%
OUTPUT: label 0

###

Each record here notes measured inhibition.
Target: Large T antigen (Simian virus 40) (UniProt P03070)
Assay: SV40 large T antigen inhibitors, biochemical (AID 1903)
Details: SV40 large T antigen ATPase/helicase inhibition assay; at 20 µM; stronger effect = higher value
In all, about 310,000 compounds went through this assay and about 1,200 (0.39%) were called active. Not all results are given here. Potency and affinity values are given separately.
Give just the number in %; leave the unit off.

{"compound": "COCc1ccc(C(=O)N2CCCC(Nc3ccc(C(C)C)cc3)C2)o1 (stereo not drawn)", "tested_system": "Large T antigen (Simian virus 40) (UniProt P03070)", "inhibition, %": 23.2}
{"compound": "O=S(=O)(c1cc(-c2nnc(-c3ccc(Br)cc3)o2)ccc1Br)N1CCCCCC1", "tested_system": "Large T antigen (Simian virus 40) (UniProt P03070)", "inhibition, %": 4.66}
{"compound": "O=C1NN(c2ccc(F)cc2)C(=O)/C1=C\\C=C\\c1ccco1", "tested_system": "Large T antigen (Simian virus 40) (UniProt P03070)", "inhibition, %": 19.7}
{"compound": "CCc1ccc(N2NC(=O)/C(=C/C=C/c3ccco3)C2=O)cc1", "tested_system": "Large T antigen (Simian virus 40) (UniProt P03070)", "inhibition, %": 22.1}
{"compound": "COCCOC(=O)C1=C(C)NC(=O)NC1c1cn(-c2ccccc2)nc1-c1cccs1 (stereo not drawn)", "tested_system": "Large T antigen (Simian virus 40) (UniProt P03070)", "inhibition, %": 8.59}

INPUT: Tell us which inhibition value is on record for CC(C)CN1C(=O)/C(=C/c2ccco2)NC1=S
OUTPUT: 19.9

INPUT: Given Oc1ccc(N=Cc2ccc(OCc3ccccc3)cc2)cc1 , respond with its inhibition.
OUTPUT: 15.6

INPUT: Output measured inhibition for this item: O=C(NCc1ccc2c(c1)OCO2)c1ccc2c(c1)S(=O)(=O)c1ccccc1C2=O
OUTPUT: 0.8

###

A collection of compounds and their measured inhibition
Target: Large T antigen (Simian virus 40) (UniProt P03070)
Assay: SV40 large T antigen inhibitors, biochemical (AID 1903)
Conditions: SV40 large T antigen ATPase/helicase inhibition assay; at 20 µM; stronger effect = higher value
Screen size: about 310,000 compounds; about 1,200 (0.39%) were called active. The list is a sample of the results. Results with a measured potency or affinity are listed apart.
Response body: numeric value in %, unit text excluded.

# example entries with known answers
{"compound": "O=C1C2C3C=CC(C3)C2C(=O)N1CNc1ccc(O)cc1 (stereo unspecified)", "observed_result": 37.4}
{"compound": "O=C(O)c1ccc(/C=N/Nc2ccc(F)cc2F)cc1", "observed_result": 9.08}
{"compound": "O=c1cc(CN2CCOCC2)c2ccc(O)c(O)c2o1", "observed_result": 31.2}
{"compound": "COc1ccc(NC(=O)C2CCN(S(=O)(=O)c3cccc4nonc34)CC2)c(OC)c1", "observed_result": 10.9}

INPUT: Dear colleague, please send me the reported inhibition for Oc1ccc(Nc2nc3ccccc3nc2Nc2ccc(O)cc2)cc1 when you can.
OUTPUT: 35

INPUT: Identify measured inhibition corresponding to COc1ccc(NC2CCCN(C(=O)CCc3ccncc3)C2)cc1OC (stereo unspecified)
OUTPUT: 35.9

INPUT: State its inhibition: O=C(O)CN1C(=O)c2ccc(Oc3ccc([N+](=O)[O-])cc3)cc2C1=O
OUTPUT: 7.08
